From: patent US6841560B2

Test system: electrically-induced seizures in mice
assay_overview: Maximal electroshock seizure (MEST) threshold test, mouse model
Format: in vivo
experimental_setup: 10 mg/kg oral, suspension in methyl cellulose, one hour post dosing
Source text: The maximal electroshock seizure (MEST) threshold test in rodents is particularly sensitive for detecting potential anticonvulsant properties^1. In this model, anticonvulsant agents elevate the threshold to electrically-induced seizures whilst proconvulsants lower the seizure threshold. […]
Listed molecules paired with reported increase in seizure threshold
Respond numerically; units are % and should not be typed.

Worked cases, answers included:
CN1CCc2ccc(NC(=O)c3cccc(Cl)c3)cc2C1
24
CN1CCc2ccc(NC(=O)c3ccc(C(C)(C)C)cc3)cc2C1
36
CN1CCc2ccc(NC(=O)c3ccc(Oc4ccccc4)cc3)cc2C1
23

Read the next record carefully.
# input molecule: CC(C)Oc1ccc(C(=O)Nc2ccc3c(c2)CN(C)CC3)cc1 ; wanted: its increase in seizure threshold
90
